Let's look at some binders and their measured pEC50.
biological target: human CD96v2 expressed on cells (human) (UniProt P40200); assay: flow cytometry, CHO cells expressing human CD96v2
Please note pEC50 is a logarithmic value: minus log10 of concentration in mol/L. Answer with that number alone.

Field: example entries. Status: answers known.
Query :: What pEC50 value was documented for this binder, 42Y073-86F08-4 (antibody, V domains shown) VH: QVQLVQSGAEVKKPGSSVKVSCKASGGTFSEYAIHWVRQAPGQGLEWMGNIIPIFGTAGYAQKFQGRVTITADESTSTAYMELSSLRSEDTAVYYCARGAGYYGDKDPMDVWGQGTTVTVSS VL: DIQLTQSPSSLSASVGDRVTITCRASQSISSYLNWYQQKPGKAPKLLIYAASSLQSGVPSRFSGSGSGTDFTLTISSLQPEDFATYYCQQVLHTITFGGGTKVEIK ?
Result :: 10.40

Query :: What do you have for 42Y073-1A01-85 (antibody, V domains shown) VH: QVQLVQSGAEVKKPGASVKVSCKASGYTFTSYPMHWVRQAPGQGLEWMGIINPSGGFTSYAQKFQGRVTMTRDTSTSTVYMELSSLRSEDTAVYYCARETAYYTTKGNWFDPWGQGTLVTVSA VL: DIQMTQSPSSLSASVGDRVTITCRASQSISSYLNWYQQKPGKAPKLLIYAASSLQSGVPSRFSGSGSGTDFTLTISSLQPEDFATYYCQQSLYPPRTFGGGTKVEIK ?
Result :: 9.33

Query :: What do you have for 42Y073-86F08-17 (antibody, V domains shown) VH: QVQLVQSGAEVKKPGSSVKVSCKASGGTFREYAISWVRQAPGQGLEWMGGIIPVFGTANYAQKFQGRVTITADESTSTAYMELSSLRSEDTAVYYCARGAGYYGDKDPMDVWGQGTTVTVSS VL: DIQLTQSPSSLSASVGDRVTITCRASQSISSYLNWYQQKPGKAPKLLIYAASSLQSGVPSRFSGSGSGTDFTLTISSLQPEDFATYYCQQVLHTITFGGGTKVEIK ?
Result :: 10.00

Query :: What do you have for 42Y073-86F04-4 (antibody, V domains shown) VH: QVQLVQSGAEVKKPGSSVKVSCKASGGTFESEAISWVRQAPGQGLEWMGGIIPIFGRARYAQKFQGRVTITADESTSTAYMELSSLRSEDTAVYYCARLLGESGMDVWGQGTTVTVSS VL: DIQMTQSPSSLSASVGDRVTITCRASQSISSYLNWYQQKPGKAPKLLIYAASSLQSGVPSRFSGSGSGTDFTLTISSLQPEDFATYYCQQPYFSPPTFGGGTKVEIK ?
Result :: 10.40

Now for a further binder.
Query :: What pEC50 value was documented for this binder, 42Y073-86F04-18 (antibody, V domains shown) VH: QVQLVQSGAEVKKPGSSVKVSCKASGGTFSSRAISWVRQAPGQGLEWMGGIIPIMGTARYAQKFQGRVTITADESTSTAYMELSSLRSEDTAVYYCARLLGESGMDVWGQGTTVTVSS VL: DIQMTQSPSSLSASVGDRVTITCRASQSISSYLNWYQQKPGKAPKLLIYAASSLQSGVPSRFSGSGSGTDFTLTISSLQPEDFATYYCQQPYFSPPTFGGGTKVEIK ?
Result :: 10.15
